tested on: EKVX NSCLC; experiment: NCI tumour cell line growth inhibition, 48 h
Measured TGI, listed per entry.

compound	targetOrTestSystem	unitSpec	prefixOperator	TGI
O=C(Nc1cc(Cl)c(Cl)cc1Cl)C(=O)C(C(=O)c1ccc(Cl)c(Cl)c1)C1OC(=O)c2ccccc21 (stereo not given)	EKVX NSCLC	µM	=	58
Cn1c(=O)nc2n(-c3ccc(Cl)cc3Cl)c3ccccc3nc-2c1=O	EKVX NSCLC	µM	=	16.9
COC(=O)C(Cc1nc2ccc(Cl)cc2[nH]c1=O)C(=O)C(=O)Nc1ccccc1[N+](=O)[O-] (stereo not given)	EKVX NSCLC	µM	>	100
Cc1c2cnccc2nc2[nH]c3ccncc3c12	EKVX NSCLC	µM	=	96.9
Nc1nc(OCc2ccccc2)nc2[nH]ncc12	EKVX NSCLC	µM	>	100

* * *

test system: HOP-18 NSCLC; experiment: NCI tumour cell line growth inhibition, 48 h
Quick reference: TGI of the listed items.

molecule	TGI
CCC1CN2CCc3cc(OC)c(OC)cc3C2CC1CC1c2cc(OC)c(OC)cc2CCN1C(=O)CNC(=O)OC(C)(C)C (stereo not drawn)	70.7 µM
O=C1CC2C(=O)N(Cc3ccccc3)C1C(S(=O)(=O)c1ccccc1)C2S(=O)(=O)c1ccccc1 (stereo not drawn)	13.8 µM
C=CC12CN(C)C3C4COC(CC41)C1(C(=O)Nc4ccccc41)C32 (stereo not drawn)	> 200 µM
O=C(Cc1ccccc1)N/N=C(\C1=Nc2ccc([N+](=O)[O-])cc2NC1O)C(O)c1ccc([N+](=O)[O-])cc1 (stereo not drawn)	> 100 µM
CCCCCCCCCCCCC(=O)[O-].CCCCCCCCCCCCC(=O)[O-].CCCCCCCCCCCCC(=O)[O-].CCCCCCCCCCCCC(=O)[O-].[Mo+2].[Mo+2]	34.9 µM
O=C1c2ccccc2C(=O)C1C(c1ccc([N+](=O)[O-])cc1)C1C(=O)c2ccccc2C1=O	> 100 µM
CCOC(=O)CN1CCSC1=NC#N	> 100 µM
COC(=O)C(=O)C(C(=O)C=C(C)C)C(=O)C(=O)Nc1cccc(C(C)=O)c1 (stereo not drawn)	> 100 µM

* * *

# key: entry, value: TGI
system: EKVX NSCLC; assay: NCI tumour cell line growth inhibition, 48 h
readoutLabel: TGI

compound	targetOrTestSystem	valueObserved
CCCCCCCC(=O)N/N=C/c1ccc(Sc2nccn2C)c([N+](=O)[O-])c1	EKVX NSCLC	42.8 µM
OC(c1ccccc1)(c1ccccc1)c1cccnc1	EKVX NSCLC	> 100 µM
CN(C)c1ccc(C(N)=O)cn1	EKVX NSCLC	> 100 µM
Cc1cn2c(/C=N/N/C(N)=N\N)c(-c3ccc(Cl)c([N+](=O)[O-])c3)nc2s1	EKVX NSCLC	15.6 µM
COC(=O)C(=O)C(C(=O)C=C(C)C)C(=O)C(=O)Nc1cccc(C(C)=O)c1 (stereo not given)	EKVX NSCLC	> 100 µM
CCCCCCCCCCCCC(=O)[O-].CCCCCCCCCCCCC(=O)[O-].CCCCCCCCCCCCC(=O)[O-].CCCCCCCCCCCCC(=O)[O-].[Mo+2].[Mo+2]	EKVX NSCLC	35.8 µM
Cn1cc(-c2ccc3c(c2)CCN3C(=O)Cc2cccc(C(F)(F)F)c2)c2c(N)ncnc21	EKVX NSCLC	29 µM
CCSc1nc(COC(=O)NC)c(COC(=O)NC)n1C	EKVX NSCLC	> 100 µM
Clc1ccc2nc(Oc3ccccc3)cnc2c1	EKVX NSCLC	> 100 µM
COc1ccc(C2NC3=C(CCCC3)C3(C#N)C(=O)N=C(N)C23C#N)cc1 (stereo not given)	EKVX NSCLC	> 100 µM
O=C(Cc1ccccc1)N/N=C(\C1=Nc2ccc([N+](=O)[O-])cc2NC1O)C(O)c1ccc([N+](=O)[O-])cc1 (stereo not given)	EKVX NSCLC	> 100 µM
Cc1nnc2sc(-c3ccc(-c4ccccc4Cl)o3)nn12	EKVX NSCLC	> 100 µM
CC(C)[C@@H](COC(C)(C)C)N=CN1CCc2c([nH]c3ccccc23)C1	EKVX NSCLC	> 100 µM
CCN1C(=O)N(CC)C2C1NN=c1s/c(=C3\C(=O)N(C)c4ccccc43)c(=O)n12 (stereo not given)	EKVX NSCLC	> 100 µM
NC1CNC(=O)c2cscc21 (stereo not given)	EKVX NSCLC	> 100 µM
C[C@H](CSC(=O)c1ccccc1)C(=O)N1c2ccccc2C[C@H]1C(=O)O	EKVX NSCLC	> 100 µM
CS(=O)(=O)Nc1cc(-c2ccc3ncnc(Nc4ccc5c(cnn5Cc5ccc(F)cc5)c4)c3c2)cnc1Cl	EKVX NSCLC	18.4 µM
Cc1cc(N2CCCC2)nc(N(CCCNc2ccnc3cc(Cl)ccc23)Cc2ccc3c(c2)OCO3)n1	EKVX NSCLC	> 100 µM
C/C(=N\NC(N)=O)C(CN(C)C)C(c1ccccc1)c1c(O)c2ccccc2oc1=O (stereo not given)	EKVX NSCLC	> 100 µM
CC(=O)C1=C([O-])C(C)OC1=O.CC(=O)C1=C([O-])C(C)OC1=O.[NH-]C1CCCC[C@H]1[NH-].[Pt+4] (stereo not given)	EKVX NSCLC	> 100 µM

* * *

tested on: DMS 114 small cell lung; assay: NCI tumour cell line growth inhibition, 48 h

molecule	targetOrTestSystem	TGI
COC(=O)C(=O)C(C(=O)C=C(C)C)C(=O)C(=O)Nc1cccc(C(C)=O)c1 (stereo not drawn)	DMS 114 small cell lung	> 100 µM
CC(=O)NC(CCCN(Cc1ccccc1)C(=O)N(CCCl)N=O)C(=O)NCc1ccccc1 (stereo not drawn)	DMS 114 small cell lung	> 100 µM
C=CC12CN(C)C3C4COC(CC41)C1(C(=O)Nc4ccccc41)C32 (stereo not drawn)	DMS 114 small cell lung	> 200 µM
Cc1cccc(C(C)(C)C)c1NC(=O)C(=O)C(c1cnc2ccccc2n1)[N+](=O)[O-] (stereo not drawn)	DMS 114 small cell lung	> 100 µM
CCC1=CC2CC(C(=O)OC)C1(N(C)C)C2=O (stereo not drawn)	DMS 114 small cell lung	> 100 µM
O=C(Nc1cc(Cl)c(Cl)cc1Cl)C(=O)C(C(=O)c1ccc(Cl)c(Cl)c1)C1OC(=O)c2ccccc21 (stereo not drawn)	DMS 114 small cell lung	39.5 µM
COc1ccc(CSc2nc3ccccc3nc2-c2cccs2)cc1	DMS 114 small cell lung	> 100 µM
OC(c1ccccc1)(c1ccccc1)c1cccnc1	DMS 114 small cell lung	> 100 µM
CC(C)[C@@H](COC(C)(C)C)N=CN1CCc2c([nH]c3ccccc23)C1	DMS 114 small cell lung	> 100 µM
CN(C)C(=O)C1CCC(=C2C(=O)OC(C)(C)OC2=O)N1C (stereo not drawn)	DMS 114 small cell lung	> 100 µM
O=C(O)c1cc2c(s1)C(=O)c1sccc1C2=O	DMS 114 small cell lung	11.2 µM
CN(C)CCNC(=O)c1ccc(Cl)c2c(Nc3ccc(S(N)(=O)=O)cc3)c3ccccc3nc12	DMS 114 small cell lung	4.63 µM
C/C=C(/CCCCNCCCC)[Si](C)(C)C	DMS 114 small cell lung	33.5 µM
CCOC(=O)CN1CCSC1=NC#N	DMS 114 small cell lung	> 100 µM
COC1CC(n2cnc3c(N)ncnc32)OC1CO (stereo not drawn)	DMS 114 small cell lung	> 100 µM
CCOC(=O)N1C2C=C(C)C(C3C(C)C(=O)N31)N(C(=O)c1ccccc1)O2 (stereo not drawn)	DMS 114 small cell lung	> 100 µM
COC(=O)[C@@]12OC[C@]34C([C@@H](O)C1O)[C@@]1(C)CC(=O)C(O)=C(C)C1C[C@H]3OC(=O)[C@H](OC(=O)CC(C)C(F)(F)F)[C@H]42 (stereo partly drawn)	DMS 114 small cell lung	0.128 µM
O=C(Nc1ccc([N+](=O)[O-])cc1)C(=O)C(C(=O)c1ccccc1F)C1OC(=O)c2ccccc21 (stereo not drawn)	DMS 114 small cell lung	98 µM

* * *

tested on: NCI-H522 lung; assay: NCI tumour cell line growth inhibition, 48 h; in the data active means GI50 below about 0.43 µM; inactive means the rest
Classes used: active, inactive

compound	targetOrTestSystem	category
Cc1cn2c(/C=N/N/C(N)=N\N)c(-c3ccc(Cl)c([N+](=O)[O-])c3)nc2s1	NCI-H522 lung	inactive
CCc1c2c(nc3cccc(N)c13)-c1cc3c(c(=O)n1C2)COC(=O)[C@]3(O)CC	NCI-H522 lung	active
C=C(C)CCC(C)N1CCC(N2CCC(C(=O)NCCc3ccccc3)CC2)CC1 (configuration not stated)	NCI-H522 lung	inactive
O=c1oc2ccc(Cl)cc2c(=O)n1-c1ccc(I)cc1F	NCI-H522 lung	active
CC(=O)C1=C([O-])C(C)OC1=O.CC(=O)C1=C([O-])C(C)OC1=O.[NH-]C1CCCC[C@H]1[NH-].[Pt+4] (configuration not stated)	NCI-H522 lung	inactive
Fc1ccc(Nc2nc(NCCNc3ccnc4cc(Cl)ccc34)nc(N3CCOCC3)n2)cc1	NCI-H522 lung	inactive
COc1ccc2c(c1)C(=O)c1c-2n(CCCN2CCOCC2)c(=O)c2ccccc12	NCI-H522 lung	inactive
